method notes: Plasma pharmacokinetics, acute study (single oral administration)
Assay type: in vivo, CD1 female mice
measurement context: female, CD1, mouse, plasma, po, 100 mg/kg, plasma analyte, single oral Bio-nFeR 100 mg/kg, Suppl. Table 2 A; read-out: Tmax
reported endpoint: Tmax (h)
# output: bare number, implied unit h

**Q:** Which Tmax is reported for this compound? CC1=C(/C=C/C(C)=C/C=C/C(C)=C/C(=O)Nc2ccc(O)cc2)C(C)(C)CCC1 [4-HPR, 4-hydroxy (phenyl)retinamide, reference compound]
**A:** 4

====

method notes: Plasma pharmacokinetics, acute study (single oral administration)
Format: in vivo, CD1 female mice
measurement context: female, CD1, mouse, plasma; mice, oral Bio-nFeR, different doses; read-out: elimination half-life (converted)
reported endpoint: half-life

**Q:** What value of measured half-life is listed for CC1=C(/C=C/C(C)=C/C=C/C(C)=C/C(=O)Nc2ccc(O)cc2)C(C)(C)CCC1 [4-HPR, 4-hydroxy (phenyl)retinamide, reference compound] ?
**A:** ~7 h

====

method notes: Plasma pharmacokinetics, acute study (single oral administration)
Format: in vivo, CD1 female mice
measurement context: female, CD1, mouse, plasma, po, 50 mg/kg, plasma analyte, single oral Bio-nFeR 50 mg/kg, Suppl. Table 2 A
reported endpoint: AUC(0-t) (ng·h/mL)
Respond with the bare value in ng·h/mL.

**Q:** Name the recorded AUC(0-t) for CC1=C(/C=C/C(C)=C/C=C/C(C)=C/C(=O)Nc2ccc(O)cc2)C(C)(C)CCC1 [4-HPR, 4-hydroxy (phenyl)retinamide, reference compound] .
**A:** 39200

====

method notes: Tumour pharmacokinetics: fenretinide and metabolite levels in plasma and tumours of xenografted mice
Type: in vivo
measurement context: female, NOD-SCID, mouse, oral; melanoma xenograft, Bio-nFeR 100 mg/kg, tumour density assumed =1; read-out: Mean 4-HPR concentration: Tumor
reported endpoint: concentration at 3 h (µM)
Give the number; µM is assumed, so skip it.

**Q:** Please look up its concentration at 3 h: CC1=C(/C=C/C(C)=C/C=C/C(C)=C/C(=O)Nc2ccc(O)cc2)C(C)(C)CCC1 [4-HPR, 4-hydroxy (phenyl)retinamide, reference compound]
**A:** 5.4

====

method notes: Plasma pharmacokinetics, acute study (single oral administration)
Format: in vivo, CD1 female mice
measurement context: female, CD1, mouse, plasma, po, 200 mg/kg, plasma analyte, single oral NCI-nFeR, 4-HPR dose 200mg/Kg, Suppl. Table 2 B
reported endpoint: Cmax (ng/mL)
Enter your answer as a number in ng/mL; do not include the unit.

**Q:** Suppose we examine the compound CC1=C(/C=C/C(C)=C/C=C/C(C)=C/C(=O)Nc2ccc(O)cc2)C(C)(C)CCC1 [4-HPR, 4-hydroxy (phenyl)retinamide, reference compound] ; what Cmax value has been reported?
**A:** 8460

====

method notes: Tumour pharmacokinetics: fenretinide and metabolite levels in plasma and tumours of xenografted mice
Type: in vivo
measurement context: female, NOD-SCID, mouse, tumour, oral; melanoma xenograft, Bio-nFeR 100 mg/kg; read-out: Mean 4-HPR concentration ± (sd): Tumor
reported endpoint: concentration at 3 h (ng/g)
Number in ng/g, nothing else.

**Q:** Record request: concentration at 3 h value, item CC1=C(/C=C/C(C)=C/C=C/C(C)=C/C(=O)Nc2ccc(O)cc2)C(C)(C)CCC1 [4-HPR, 4-hydroxy (phenyl)retinamide, reference compound]
**A:** 2130
